Where these numbers come from: PubChem BioAssay AID1578

Each record here notes measured inhibition.
# METHOD: NOD1 signaling inhibitors, primary screen, cell-based, luminescence, uHTS (AID 1578);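 also: HEK-293T reporter cells stimulated with the NOD1 agonist gamma-tri-DAP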
# EXPERIMENTAL_CONDITIONS: NOD1-driven NF-kB luciferase reporter cells, at 4 µM, hits give high values
The campaign covered roughly 290,000 compounds. About 3,000 (1%) were called active. Many of the other results were omitted from the sample, so actives are more common in it than they were.
Express the result in % but write the number alone.

Recorded results for 4 molecules are shown here.
[
  {
    "MOLECULE": "CCc1ccc(C2CC(=O)Nc3c2c(=O)nc2c(C)cccn32)cc1 (stereo not given)",
    "VALUE_UNITS": "%",
    "inhibition": -32.6
  },
  {
    "MOLECULE": "CC1(O)CC(c2ccc(Cl)cc2)=NN1C(=O)c1ccc([N+](=O)[O-])cc1 (stereo not given)",
    "VALUE_UNITS": "%",
    "inhibition": 92.3
  },
  {
    "MOLECULE": "CC(=O)N1N=C(c2ccc(Cl)cc2)CC1c1ccc([N+](=O)[O-])cc1 (stereo not given)",
    "VALUE_UNITS": "%",
    "inhibition": -12.3
  },
  {
    "MOLECULE": "C/C(=N\\N=C(N)N)c1cc(Cl)ccc1Cl",
    "VALUE_UNITS": "%",
    "inhibition": -23.9
  }
]

Note: attention shifts to another entry.
Request: Could you share which inhibition value was measured for O=C(c1ccc(Br)c([N+](=O)[O-])c1)N1CCN(Cc2ccccc2)CC1 ?
Response: -6.4

---

Let's look at some molecules and their measured inhibition.
# METHOD: NOD1 signaling inhibitors, primary screen, cell-based, luminescence, uHTS (AID 1578);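 also: HEK-293T reporter cells stimulated with the NOD1 agonist gamma-tri-DAP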
# EXPERIMENTAL_CONDITIONS: NOD1-driven NF-kB luciferase reporter cells, at 4 µM, hits give high values
Screen size: about 290,000 compounds; about 3,000 (1%) were called active. The sample as a whole holds a higher share of actives than the screen did.
Your answer should be a plain number; it is taken to be in %.

These recorded examples may help you get a feel for the data.
[
  {
    "MOLECULE": "CCCCn1c2c(c(=N)c3ccccc31)CCC2",
    "VALUE_UNITS": "%",
    "MEASURED_NUMBER": -6.7
  },
  {
    "MOLECULE": "CCOC(=O)C(=Cc1ccc(Br)cc1)C(=O)OCC",
    "VALUE_UNITS": "%",
    "MEASURED_NUMBER": 36.2
  },
  {
    "MOLECULE": "CCNC(=S)Nc1cccc(F)c1C",
    "VALUE_UNITS": "%",
    "MEASURED_NUMBER": -29.3
  }
]

Request: For the molecule CCCCCn1c2c(c(=N)c3ccccc31)CCC2 , what inhibition is on record?
Response: -13.6

Request: Subsequent entry: C=CCSc1nc(C)c(CC=C)c(=O)[nH]1
Response: -34.6

Request: Also CCCCn1c(SCC(=O)Nc2nnc(C)s2)nc2c1c(=O)n(C)c(=O)n2C , if possible.
Response: 6.2

Request: Could you do the same for O=C(NCCc1ccccc1)c1cccc2c1C(=O)N(C1CCCCC1)C2 , please?
Response: -19.5

Request: Also CCOC(=O)C(=Cc1cc(=O)c(OC)co1)C(=O)OCC , if possible.
Response: -12.3

Request: Now consider Cn1ncc(Br)c1C(=O)N/N=C/c1cccc(OC2CSC2)c1 .
Response: 60.4

Request: How about this molecule: COc1cccc(CNC(=O)C(C)n2nc(C)n3c(cc4occc43)c2=O)c1 (stereo unspecified)
Response: -11.7

Request: # iterate: CCOc1ccc(CCNC(=O)COC(=O)C2CCN(S(=O)(=O)c3ccc(C)c(C)c3)CC2)cc1OCC
Response: -4.1

Request: Ok, now CN1/C(=C\C(=S)NC(=O)c2ccccc2Cl)C(C)(C)c2ccccc21
Response: -48.3

Request: One more molecule: O=C(Cc1ccc(Br)c2ccccc12)N/N=C/c1ccccn1
Response: 7.4

Request: Do the same for O=C1N/C(=N/O)S/C1=C/c1cccc([N+](=O)[O-])c1 please
Response: -24.9

Request: Next molecule up: CCOC(=O)CNC(=O)CSc1ncnc2c1cnn2-c1ccccc1
Response: -10.2

Request: Note, next up: COCCN(Cc1cc2cc(C)ccc2n2nnnc12)C(=S)Nc1cccc(C)c1
Response: 33.3

Request: Now the molecule C[C@]12CC(O)C3C(CCC4=CC(=O)CC[C@@]43C)C1CCC2c1csc(-c2ccccc2)n1 (stereo partly specified)
Response: 15.3

Request: Now the molecule CCOC(=O)C(=Cc1ccccc1OC)C(=O)OCC
Response: 47.6

Request: Next up: CCCn1c(SCC(=O)Nc2nnc(C(C)C)s2)nc2c1c(=O)n(C)c(=O)n2C
Response: 34

Request: CCOC(=O)/C(C#N)=C\C1=C(N2CCOCC2)CC(C)(C)OC1 ?
Response: -33.6

---

This listing pairs compounds with measured inhibition.
# METHOD: NOD1 signaling inhibitors, primary screen, cell-based, luminescence, uHTS (AID 1578);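 also: HEK-293T reporter cells stimulated with the NOD1 agonist gamma-tri-DAP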
# EXPERIMENTAL_CONDITIONS: NOD1-driven NF-kB luciferase reporter cells, at 4 µM, hits give high values
Among all 290,000 compounds or so, about 3,000 (1%) were called active. This excerpt belongs to a sample that is enriched for actives.

Examples with answers:
[
  {
    "COMPOUND": "O=C(Nc1ccccn1)N1CCOCC1",
    "inhibition": "-28.5% (inactive)"
  },
  {
    "COMPOUND": "COC(=O)[C@@]1(Cc2ccccc2)[C@@H]2C(=CC(=O)[C@H]2CC(=O)C(=O)N(C)C)CN1C(=O)c1ccccc1",
    "inhibition": "47.7% (inactive)"
  },
  {
    "COMPOUND": "Cc1cc(OCC(=O)N2CCN(c3ccccc3)CC2)c2c(C)cc(=O)oc2c1",
    "inhibition": "-49.6% (inactive)"
  },
  {
    "COMPOUND": "O=C(CC1NCCNC1=O)Nc1ccccc1 (stereo unspecified)",
    "inhibition": "-14.1% (inactive)"
  },
  {
    "COMPOUND": "O=C1C=C(NC2=CC3OC(c4ccccc4)OCC3OC2=O)CCC1 (stereo unspecified)",
    "inhibition": "-24.3% (inactive)"
  },
  {
    "COMPOUND": "COc1ccc(Cn2c(C)c(C)c(C#N)c2NC(=O)Nc2ccc(F)cc2)cc1",
    "inhibition": "-50% (inactive)"
  }
]

Request: Item under review: O=C(O)/C=C\C(=O)NNC(=O)c1cc(-c2ccccc2)n[nH]1 . Reported inhibition?
Response: -10% (inactive)

---

# METHOD: NOD1 signaling inhibitors, primary screen, cell-based, luminescence, uHTS (AID 1578);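 also: HEK-293T reporter cells stimulated with the NOD1 agonist gamma-tri-DAP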
# EXPERIMENTAL_CONDITIONS: NOD1-driven NF-kB luciferase reporter cells, at 4 µM, hits give high values
Out of some 290,000 compounds screened, about 3,000 (1%) were called active. This excerpt belongs to a sample that is enriched for actives.
Property: inhibition; scope: individual compounds
Give a bare numeral; the unit % is implied.

These solved cases illustrate the format of a correct answer.
[
  {
    "COMPOUND": "O=[N+]([O-])c1ccc(N2CCN(C(=S)NCc3ccc(Cl)cc3)CC2)cc1",
    "REPORTED_METRIC": "inhibition",
    "VALUE_UNITS": "%",
    "MEASURED_NUMBER": 89
  },
  {
    "COMPOUND": "CN1C(=O)Cc2cc(S(=O)(=O)NCCc3ccc(Cl)cc3)ccc21",
    "REPORTED_METRIC": "inhibition",
    "VALUE_UNITS": "%",
    "MEASURED_NUMBER": -20.9
  },
  {
    "COMPOUND": "O=C(NCc1ccccn1)c1nc(Cn2cc([N+](=O)[O-])cn2)no1",
    "REPORTED_METRIC": "inhibition",
    "VALUE_UNITS": "%",
    "MEASURED_NUMBER": -23.2
  },
  {
    "COMPOUND": "CC(C)C[C@H](NC(=O)N1CCn2c1nc1ccccc12)C(=O)N[C@@H](C(=O)O)c1ccccc1",
    "REPORTED_METRIC": "inhibition",
    "VALUE_UNITS": "%",
    "MEASURED_NUMBER": -6
  }
]

Request: Fill blank: measured inhibition of the compound COCCN=c1scc(-c2ccc3c(c2)NC(=O)CO3)n1/N=C(\C)c1ccc(O)cc1 is ____.
Response: -6.7

Request: Try this compound too: Cc1ccc(C(=O)NS(=O)(=O)c2ccc(N=NN(C)C)cc2)cc1
Response: 46.6

Request: And the next one, COc1ccc(C(=O)N/C(N)=N/c2nc3ccccc3o2)cc1 ?
Response: -46.2

Request: Next compound: Cc1ccccc1-n1nc2c(c1NC(=O)C(C)C)CS(=O)(=O)C2
Response: -6.5

Request: How about this compound: CCOc1ccc2c(c1)C(C)=CC(C)(C)N2S(=O)(=O)c1ccc(NC(C)=O)cc1
Response: 74.1

Request: And for CCCCCCCCCC[N+](C)(C)CC/C=C1/c2ccccc2Sc2ccc(Cl)cc21 ?
Response: -0.8
